Each recorded value in this set is attributed to patent US12129221B2.

Assay text: Liver microsome stability, mouse
Format: in vitro ADME
Study conditions: liver microsomes, comparison table with WO2016/101885 compounds, read-out: Mouse Liver Microsome T1/2
Experimental endpoint: half-life (min)

# Compound, half-life [min]
records = [
    ("CCC(C)(C)C(=O)N(O)Cc1ccccc1 [Compound 92, reference compound]", 32),
]

A. CCC(C)(C)C(=O)N(O)Cc1ccc(F)cc1
B. CCC(C)(C)C(=O)N(O)Cc1ccc(F)c(F)c1F
C. CCC(C)(C)C(=O)N(O)Cc1cc(F)c(F)c(F)c1
Enquiry: Sort low-to-high on half-life, please. Rank them, then answer with their labels in that order.
Return: C, B, A
(C: 6 min, B: 12 min, A: 24 min)

I. CCC(C)(C)C(=O)N(O)Cc1ccc(F)c(F)c1
II. CCC(C)(C)C(=O)N(O)Cc1ccc(F)cc1F
Enquiry: Select one: I or II . Criterion: greater recorded half-life. Answer by quoting the chosen item's label.
Return: II

---

Assay text: PK in rat
Parameters: species or system SD rat
Study conditions: Sprague-Dawley, in vivo; Rat, PO 10 mg/kg
Experimental endpoint: Cmax (ng/mL)

a. CCC(C)(C)C(=O)N(O)Cc1ccccc1 [Compound 92, reference compound]
b. CCC(C)(C)C(=O)N(O)Cc1ccc(F)cc1 [SIR1-181]
Enquiry: Select one: a or b . Criterion: greater recorded Cmax. Answer by quoting the chosen item's label.
Return: a

---

Assay text: PK in mouse
Study conditions: in vivo, PO 10 mg/kg
Experimental endpoint: bioavailability (%)

# Molecule, Unit label, Obs value
rows = [
    ("CCC(C)(C)C(=O)N(O)Cc1cc(F)cc(F)c1 [Compound 13]", "%", 33.7),
]

I. CCC(C)(C)C(=O)N(O)Cc1ccc(F)cc1 [SIR1-181]
II. CCC(C)(C)C(=O)N(O)Cc1ccccc1 [Compound 92, reference compound]
Enquiry: Select one: I or II . Criterion: greater recorded bioavailability. Answer by quoting the chosen item's label.
Return: I

---

Below: a set of entries, each annotated with reported half-life.
Assay text: Hepatocyte stability, monkey
Format: in vitro ADME
Study conditions: monkey, hepatocytes, Hepatocyte Stability, comparison table; read-out: Monkey T1/2
Your answer is read as min, so omit the unit and give the number.

# Compound, half-life (min)
data = [
    ("CCC(C)(C)C(=O)N(O)Cc1ccccc1 [Compound 92, reference compound]", 19),
]

The record that follows has no half-life shown yet.
Enquiry: Would you mind telling me what half-life value was observed for `CCC(C)(C)C(=O)N(O)Cc1cc(F)cc(F)c1` ?
Return: 25

---

Assay text: Liver microsome stability, rat
Assay type: in vitro ADME
Study conditions: liver microsomes, liver microsome stability, read-out: Rat T1/2
Experimental endpoint: half-life (min)

Past entries and their recorded results:
# Compound, Experimental endpoint, Obs value
rows = [
    ("[2H]C([2H])C([2H])([2H])C(C)(C)C(=O)N(O)Cc1ccccc1", "half-life", 28.6),
    ("CCC(C)(C)C(=O)N(O)Cc1cc(F)cc(F)c1", "half-life", 19.9),
    ("CCC(C)(C)C(=O)N(O)Cc1ccccc1 [Compound 92, reference compound]", "half-life", 25.1),
    ("CCC(C)(C)C(=O)N(O)Cc1ccc(Cl)cc1", "half-life", 41.1),
    ("[2H]CC([2H])C(C)(C)C(=O)N(O)Cc1cc(F)cc(F)c1 (stereo not shown)", "half-life", 23.3),
]

I. C=CC(C)(C)C(=O)N(O)Cc1ccccc1
II. [2H]CC([2H])C(C)(C)C(=O)N(O)Cc1ccccc1 (stereo not shown)
Enquiry: Lower value of half-life belongs to which: I or II ? Answer by quoting the chosen item's label.
Return: II
(II: 19.8 min, I: 28.9 min)
